Measured values drawn from the supplement of paper PMC13380429 for this set.

- Test system: Calu-3
- assayMethodText: cell viability relative to DMSO; higher = less toxic
- conditionDescription: 72 h; 10 nM
Catalogue of molecules with associated cell viability
Numeric only. Scale: %

The following molecules have reported results that may help.
[
  {
    "molecule": "Cc1cc(O)c2c(c1)C(=O)c1cccc(O)c1C2=O",
    "unitsLabel": "%",
    "cell viability": 98.1
  },
  {
    "molecule": "CNC(=O)N(C)N=O",
    "unitsLabel": "%",
    "cell viability": 103
  }
]

Per the record, O=C(O)C[C@H]1CC[C@H](c2ccc(-c3ccc(Nc4ccc(C(F)(F)F)nc4)cn3)cc2)CC1 has cell viability of 103

Entry OCc1ccc(-c2ccc(-c3ccc(CO)s3)o2)s1 — recorded cell viability = 101

The molecule listed as CCOC(=O)C1=C(C)NC(c2ccccc2)=C(C(=O)OCc2ccc([N+](=O)[O-])cc2)[C@@H]1C#Cc1ccccc1 has a reported cell viability of 97.1

In plain terms, CCCCCCCC/C=C\CCCCCCCC(=O)N[C@@H](CO)Cc1ccc(O)cc1 has a documented cell viability of 102

Reported cell viability of CCOC(=O)c1ncn2c1[C@@H]1CCCN1C(=O)c1cc(OC)ccc1-2 : 88

Looking up COc1ccc(-n2[nH]c3c4c(ncc3c2=O)CCCCC4)cc1 , I found its cell viability recorded as 98.7

====

- Test system: U2OS
- assayMethodText: drug sensitivity score (DSS) for viability; higher = more toxic; extreme values may be limits of the assay
- conditionDescription: 72 h
endpoint: drug sensitivity score
I'd appreciate a reply containing only the number, no unit.

Record excerpt, results attached:
[
  {
    "compound": "Cc1cccc(Nc2nc(-c3ccncc3)cs2)c1",
    "drug sensitivity score": 0
  },
  {
    "compound": "C[C@]12CC[C@H]3[C@@H](CCC4=CC(=O)CC[C@@]43C)[C@@H]1CC[C@@H]2C(=O)CO [desoxycortone]",
    "drug sensitivity score": 0
  },
  {
    "compound": "Cc1c(N)nc([C@H](CC(N)=O)NC[C@H](N)C(N)=O)nc1C(=O)N[C@H](C(=O)N[C@H](C)[C@@H](O)[C@H](C)C(=O)N[C@H](C(=O)NCCc1nc(-c2nc(C(=O)NCCC[S+](C)C)cs2)cs1)[C@@H](C)O)[C@@H](OC1OC(CO)C(O)C(O)C1OC1OC(CO)C(O)C(OC(N)=O)C1O)c1cnc[nH]1 (some centres undefined) [bleomycin]",
    "drug sensitivity score": 3.8
  },
  {
    "compound": "Cn1cc(C(=O)C(=O)N[C@H]2CN3CCC2CC3)c2ccccc21",
    "drug sensitivity score": 0
  },
  {
    "compound": "Cc1cc([C@@H](C)Nc2ccccc2C(=O)O)c2nc(N3CCOCC3)cc(=O)n2c1 [AZD6482]",
    "drug sensitivity score": 0.6
  }
]

Consider now this further compound.
Query CC(C)(C)C(=O)/C(=N/c1ccc(Cl)cc1)NNc1ccc(Cl)cc1 on U2OS; drug sensitivity score returned: 0

====

- Tested on: U2OS
- assayMethodText: cell viability relative to DMSO; higher = less toxic
- conditionDescription: 72 h; 1 nM
endpoint: cell viability

Memo: O[C@H]1[C@H](O)[C@@H](O)[C@H](O)[C@@H](O)[C@H]1O [inositol] , reported cell viability: 106%

Note to self: cell viability recorded for CCOC(=O)[C@H](CCc1ccccc1)N[C@@H](C)C(=O)N1Cc2cc(OC)c(OC)cc2C[C@H]1C(=O)O [moexipril] was 96%

Entry C[C@H](NC[C@H](O)CP(=O)(O)Cc1ccccc1)c1ccc(Cl)c(Cl)c1 — recorded cell viability = 96.5%

cell viability in this record for Cc1ccc(Cl)c(OCC(O)CNC(C)(C)C)c1 (stereo not given) [bupranolol] : 101%

The reported cell viability of the compound CN(C)CCNc1nc2cc(O)ccc2c2c1C(=O)c1ccccc1-2 [TAS-103] was 99.4%

====

- System: A549-ACE2
- assayMethodText: drug-induced phospholipidosis relative to tamoxifen; higher = more phospholipidosis
- conditionDescription: 3.33333 µM; 24 h
Entries and their drug-induced phospholipidosis
Provide the reading as a plain figure in %.

Examples with answers:
[
  {
    "compound": "Cn1cc(C2=C(c3ccc(Cl)cc3Cl)C(=O)NC2=O)c2ccccc21",
    "drug-induced phospholipidosis, %": 57
  },
  {
    "compound": "CN(Cc1ccc(C(C)(C)C)cc1)Cc1cccc2ccccc12 [butenafine]",
    "drug-induced phospholipidosis, %": 2.21
  },
  {
    "compound": "CCCCN1[C@@H]2CC[C@H]1C[C@@H](OC(c1ccc(F)cc1)c1ccc(F)cc1)C2 [JHW-007]",
    "drug-induced phospholipidosis, %": 80.2
  }
]

Field drug-induced phospholipidosis (entry OCCN1CCN(CC/C=C2/c3ccccc3Sc3ccc(C(F)(F)F)cc32)CC1 [flupentixol] ) reads 30.1

====

- Test system: Vero E6
- assayMethodText: drug sensitivity score (DSS) for viability; higher = more toxic; extreme values may be limits of the assay
- conditionDescription: 72 h
endpoint: drug sensitivity score
Lab note: jot the number down without any unit.

Worked set:
[
  {
    "compound": "CC(C)N[C@H]1CCn2c(=O)[nH]c3cccc(c32)[C@@H]1O [zilpaterol]",
    "assayResult": 0
  },
  {
    "compound": "Nc1nc2[nH]cc(CCc3ccc(C(=O)N[C@@H](CCC(=O)O)C(=O)O)cc3)c2c(=O)[nH]1 [pemetrexed]",
    "assayResult": 6.5
  },
  {
    "compound": "CS(=O)(=O)Nc1ccc([N+](=O)[O-])cc1Oc1ccccc1 [nimesulide]",
    "assayResult": 0
  },
  {
    "compound": "COc1ccc(-n2[nH]c3c4c(ncc3c2=O)CCCCC4)cc1",
    "assayResult": 0
  }
]

Entry CC(=O)O[C@H]1C[C@@H]2CC[C@@H]3[C@H](CC[C@@]4(C)[C@H]3C[C@H](N3CC[N+](C)(C)CC3)[C@@H]4OC(C)=O)[C@@]2(C)C[C@@H]1N1CC[N+](C)(C)CC1 [pipecuronium] , tested on Vero E6, has a reported drug sensitivity score of 0

Entry CS(=O)(=O)c1ccc(-c2cc(Br)sc2-c2ccc(F)cc2)cc1 [DUP-697] , Vero E6 data, drug sensitivity score value: 0

Value sought: drug sensitivity score, system Vero E6, item O=C1C=CC(=O)C2=C1C1c3ccccc3C2c2ccccc21 [INCA-6] . Result: 0

Hey, Vero E6 data for COc1ccc(CCc2nc3cc(-c4c(C)noc4C)ccc3n2C[C@H](C)N2CCOCC2)cc1Cl [SGC-CBP30] : drug sensitivity score came out at 3.3

Short answer on Vero E6 for CNCCCN1c2ccccc2CCc2ccccc21 [desipramine] , drug sensitivity score: 0

# Cn1c2c(c3ccccc31)CCNCC2 with Vero E6: drug sensitivity score is 0

// compound CCOC(=O)[C@H](CCc1ccccc1)N[C@@H](C)C(=O)N1Cc2cc(OC)c(OC)cc2C[C@H]1C(=O)O [moexipril] , assay Vero E6, drug sensitivity score value: 0

# value of drug sensitivity score, Vero E6, item CC(C)c1ccc2c(c1)CC[C@H]1[C@](C)(CN)CCC[C@]21C [lylamine] = 5.7

drug sensitivity score of CCCCCCCC/C=C\CCCCCCCC(=O)N[C@@H](CO)Cc1ccc(O)cc1 [OMDM-2] , assay on Vero E6, is 0

Lab entry: Vero E6 assay, compound O=C1NC(=O)c2cc(Nc3ccc(F)cc3)c(Nc3ccc(F)cc3)cc21 , drug sensitivity score = 0

Given the compound O=C1OCCN1/N=C/c1ccc([N+](=O)[O-])o1 [furazolidone] and test system Vero E6, the measured drug sensitivity score is 0

Tested system Vero E6; drug sensitivity score recorded for Cl/C(=C\n1cncn1)c1ccc(Cl)cc1Cl [loreclezole] was 0

Sample C[C@@H](NC(=O)c1ncnc(N)c1Cl)c1ncc(C(=O)Nc2cc(C(F)(F)F)c(Cl)cn2)s1 [MLN2480] , system: Vero E6. Its drug sensitivity score is 0

Cn1cc(C(=O)C(=O)N[C@H]2CN3CCC2CC3)c2ccccc21 tested on Vero E6 gave drug sensitivity score: 0

====

- Tested on: Calu-3
- assayMethodText: cell viability relative to DMSO; higher = less toxic
- conditionDescription: 72 h; 1000 nM
endpoint: cell viability (%)
Quick note: give the figure in %, leave out the unit.

Examples from the recorded data:
[
  {
    "compound": "Cc1cc(C)c(S(=O)(=O)Nc2cccc(C(F)(F)F)c2)c(C)c1 [m-3M3FBS]",
    "unitsLabel": "%",
    "cell viability": 98.9
  },
  {
    "compound": "CC(=O)/N=c1/sc(S(N)(=O)=O)nn1C [methazolamide]",
    "unitsLabel": "%",
    "cell viability": 98.3
  },
  {
    "compound": "O=C(Nc1cc(-c2ccccc2)nn1-c1ccccc1F)c1ccc([N+](=O)[O-])cc1 [VU1545]",
    "unitsLabel": "%",
    "cell viability": 98
  },
  {
    "compound": "CCn1c(=O)c2c(nc(/C=C/c3ccc(OC)c(OC)c3)n2C)n(CC)c1=O [istradefylline]",
    "unitsLabel": "%",
    "cell viability": 101
  },
  {
    "compound": "Cc1ccc(C(=O)N(CCCN)[C@@H](c2nc3cc(Cl)ccc3c(=O)n2Cc2ccccc2)C(C)C)cc1 [ispinesib]",
    "unitsLabel": "%",
    "cell viability": 90
  },
  {
    "compound": "CCCCC[C@H](O)/C=C/[C@H]1[C@H](O)CC(=O)[C@@H]1C/C=C\\CCCC(=O)O [dinoprostone]",
    "unitsLabel": "%",
    "cell viability": 94
  }
]

# cell viability (compound: Cc1cc(CN2CCN(c3c(Br)cnc4nc(-c5ccc(N6CCN(C)CC6)cc5)[nH]c34)CC2)no1 ) is 114
